Observed Ki, system Carbonic anhydrase 2 (Homo sapiens).
State just the number; it will be interpreted in nM.

Query: Give a short answer stating reported Ki for Cc1c(CC(=O)Nc2ccc(S(N)(=O)=O)cc2)c(=O)oc2cc3occ(-c4ccc(F)cc4)c3cc12 .
Reply: 79.5

Turning now to a further record.
Query: Give a short answer stating reported Ki for Cc1ccc(-c2coc3cc4oc(=O)c(CC(=O)Nc5ccc(S(N)(=O)=O)cc5)c(C)c4cc23)cc1 .
Reply: 560
